// provenance: the supplement of paper PMC10567573

B1: PHTF1 (parent)
chain: RVKLISNKGTETDNDPSCVHPIIK

Variants of: B1
Assay: protein stability index of a GFP-peptide fusion (GPS, HEK-293T) (PSI 1-6); higher = more stable;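 further: lentivirally expressed fusions sorted by FACS into six bins by GFP to DsRed ratio, PSI derived from sequencing read proportions per bin multiplied by bin number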
Settings: c terminus: a fixed tail appended
Property Label: protein stability index
// return a plain number; no unit text

Query block: I have this variant here, D13E , and I need its recorded protein stability index.
Result block: 4.21

Query block: I have this variant here, N7F , and I need its recorded protein stability index.
Result block: 2.92

Query block: I have this variant here, I23Q , and I need its recorded protein stability index.
Result block: 4.64

Query block: I have this variant here, I5E , and I need its recorded protein stability index.
Result block: 4.63

Query block: I have this variant here, S6I , and I need its recorded protein stability index.
Result block: 3.23

Query block: I have this variant here, T10S , and I need its recorded protein stability index.
Result block: 3.88

Query block: I have this variant here, S6F , and I need its recorded protein stability index.
Result block: 2.77

Query block: I have this variant here, H20D , and I need its recorded protein stability index.
Result block: 4.46

Query block: I have this variant here, N14F , and I need its recorded protein stability index.
Result block: 3.06

Query block: I have this variant here, I5R , and I need its recorded protein stability index.
Result block: 3.86

Query block: I have this variant here, K8N , and I need its recorded protein stability index.
Result block: 3.96

Query block: I have this variant here, I5T , and I need its recorded protein stability index.
Result block: 4.25

Query block: I have this variant here, K3E , and I need its recorded protein stability index.
Result block: 4.64

Query block: I have this variant here, P21K , and I need its recorded protein stability index.
Result block: 3.84

Query block: I have this variant here, K8I , and I need its recorded protein stability index.
Result block: 3.78

Query block: I have this variant here, G9L , and I need its recorded protein stability index.
Result block: 3.64

Query block: I have this variant here, V2M , and I need its recorded protein stability index.
Result block: 3.97

Query block: I have this variant here, C18K , and I need its recorded protein stability index.
Result block: 4.32

Query block: I have this variant here, V19C , and I need its recorded protein stability index.
Result block: 3.93

Query block: I have this variant here, I5Y , and I need its recorded protein stability index.
Result block: 3.75

Query block: I have this variant here, K24Y , and I need its recorded protein stability index.
Result block: 2.79

Query block: I have this variant here, E11Q , and I need its recorded protein stability index.
Result block: 3.57

Query block: I have this variant here, S17Y , and I need its recorded protein stability index.
Result block: 3.36

Query block: I have this variant here, H20N , and I need its recorded protein stability index.
Result block: 4.15

Query block: I have this variant here, P21I , and I need its recorded protein stability index.
Result block: 2.1

Query block: I have this variant here, D15P , and I need its recorded protein stability index.
Result block: 4.1

Query block: I have this variant here, N7M , and I need its recorded protein stability index.
Result block: 3.36

Query block: I have this variant here, L4I , and I need its recorded protein stability index.
Result block: 4.19

Query block: I have this variant here, K8Y , and I need its recorded protein stability index.
Result block: 3.22

Query block: I have this variant here, E11P , and I need its recorded protein stability index.
Result block: 3.95

Query block: I have this variant here, V2Y , and I need its recorded protein stability index.
Result block: 3.54

Query block: I have this variant here, D13H , and I need its recorded protein stability index.
Result block: 3.51

Query block: I have this variant here, I5Q , and I need its recorded protein stability index.
Result block: 4.8

Query block: I have this variant here, L4Q , and I need its recorded protein stability index.
Result block: 5.02

Query block: I have this variant here, I22M , and I need its recorded protein stability index.
Result block: 3.51

Query block: I have this variant here, N7D , and I need its recorded protein stability index.
Result block: 4.26

Query block: I have this variant here, S6A , and I need its recorded protein stability index.
Result block: 4

Query block: I have this variant here, S17E , and I need its recorded protein stability index.
Result block: 4.71

Query block: I have this variant here, T12D , and I need its recorded protein stability index.
Result block: 4.31

Query block: I have this variant here, K3M , and I need its recorded protein stability index.
Result block: 3.67

Query block: I have this variant here, E11G , and I need its recorded protein stability index.
Result block: 3.57

Query block: I have this variant here, C18Y , and I need its recorded protein stability index.
Result block: 3.77

Query block: I have this variant here, I5M , and I need its recorded protein stability index.
Result block: 4.3

Query block: I have this variant here, P16V , and I need its recorded protein stability index.
Result block: 3.97

Query block: I have this variant here, L4G , and I need its recorded protein stability index.
Result block: 4.44

Query block: I have this variant here, I5H , and I need its recorded protein stability index.
Result block: 4.3
